Target: UniProt O00574
Sequence (O00574 whole entry, looked up): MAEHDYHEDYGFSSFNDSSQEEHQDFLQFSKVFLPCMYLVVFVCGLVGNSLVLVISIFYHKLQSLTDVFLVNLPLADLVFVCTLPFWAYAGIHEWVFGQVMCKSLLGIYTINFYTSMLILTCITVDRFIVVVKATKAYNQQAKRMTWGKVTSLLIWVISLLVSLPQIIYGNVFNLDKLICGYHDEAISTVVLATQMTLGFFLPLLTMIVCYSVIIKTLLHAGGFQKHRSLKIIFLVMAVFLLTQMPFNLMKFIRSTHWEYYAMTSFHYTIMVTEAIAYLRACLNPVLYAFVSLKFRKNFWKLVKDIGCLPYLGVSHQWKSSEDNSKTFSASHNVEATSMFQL
Test: antagonist selectivity across CCR6, CXCR5 and CXCR6 – cell-based, CHO-K1 PathHunter beta-arrestin, luminescence, selectivity assay for CXCR6 antagonist project, profiling panel (AID 651601)
Details: antagonist mode, CXCR6, run 4
parameter.measured: IC50

# compound, study.target, result
records = [
    ("COc1cc(C(=O)NC2CC3CCCC(C2)N3CC(=O)Nc2ccccc2)cc(OC)c1OC (stereo unspecified)", "UniProt O00574", "40.6 µM"),
    ("O=C(CN1C2CCCC1CC(NC(=O)c1ccccc1)C2)Nc1ccccc1C(F)(F)F (stereo unspecified)", "UniProt O00574", "> 80 µM"),
    ("COc1cccc(C(=O)NC2CC3CCCC(C2)N3CC(=O)Nc2ccc(N(C)C)cc2)c1 (stereo unspecified)", "UniProt O00574", "> 80 µM"),
    ("COc1cccc(C(=O)NC2CC3CCCC(C2)N3CC(=O)Nc2ccccc2C(F)(F)F)c1 (stereo unspecified)", "UniProt O00574", "> 80 µM"),
    ("CN(C)c1ccc(NC(=O)CN2C3CCCC2CC(NC(=O)c2ccccc2)C3)cc1 (stereo unspecified)", "UniProt O00574", "> 80 µM"),
    ("O=C(CN1C2CCCC1CC(NC(=O)c1ccccc1)C2)Nc1ccccc1 (stereo unspecified)", "UniProt O00574", "> 80 µM"),
]

----------
Recorded IC50, one value per entry.
Target: C-X-C chemokine receptor type 6 (Homo sapiens)
Assay: antagonist selectivity across CCR6, CXCR5 and CXCR6 – cell-based, CHO-K1 PathHunter beta-arrestin, luminescence, selectivity assay for CXCR6 antagonist project, profiling panel (AID 651601)
Details: antagonist mode, CXCR6, mean of runs, mean IC50 across replicates
parameter.measured: IC50

# compound, parameter.measured, result
rows = [
    ("COc1cccc(C(=O)NC2CC3CCCC(C2)N3CC(=O)Nc2ccc(N(C)C)cc2)c1 (stereo unspecified)", "IC50", "> 80 µM"),
    ("COc1cc(C(=O)NC2CC3CCCC(C2)N3CC(=O)Nc2ccccc2)cc(OC)c1OC (stereo unspecified)", "IC50", "14.3 µM"),
    ("CN(C)c1ccc(NC(=O)CN2C3CCCC2CC(NC(=O)c2ccccc2)C3)cc1 (stereo unspecified)", "IC50", "> 80 µM"),
    ("COc1cccc(C(=O)NC2CC3CCCC(C2)N3CC(=O)Nc2ccccc2C(F)(F)F)c1 (stereo unspecified)", "IC50", "> 80 µM"),
    ("O=C(CN1C2CCCC1CC(NC(=O)c1ccccc1)C2)Nc1ccccc1 (stereo unspecified)", "IC50", "> 80 µM"),
    ("O=C(CN1C2CCCC1CC(NC(=O)c1ccccc1)C2)Nc1ccccc1C(F)(F)F (stereo unspecified)", "IC50", "> 80 µM"),
]

----------
Recorded pIC50, one value per entry.
Target: C-C chemokine receptor type 6 (Homo sapiens) (UniProt P51684)
Sequence (P51684 whole entry, looked up): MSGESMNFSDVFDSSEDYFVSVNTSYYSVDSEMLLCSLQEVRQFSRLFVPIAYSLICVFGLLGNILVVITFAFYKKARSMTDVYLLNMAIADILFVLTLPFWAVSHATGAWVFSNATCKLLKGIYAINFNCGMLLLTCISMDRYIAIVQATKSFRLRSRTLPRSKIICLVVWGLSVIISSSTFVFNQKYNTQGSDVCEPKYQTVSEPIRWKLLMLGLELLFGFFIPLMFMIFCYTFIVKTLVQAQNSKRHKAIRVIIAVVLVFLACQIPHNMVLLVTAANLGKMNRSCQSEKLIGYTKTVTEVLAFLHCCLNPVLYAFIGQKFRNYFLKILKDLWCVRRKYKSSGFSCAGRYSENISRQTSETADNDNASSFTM
Assay: antagonist selectivity across CCR6, CXCR5 and CXCR6 – cell-based, CHO-K1 PathHunter beta-arrestin, luminescence, selectivity assay for CXCR6 antagonist project, profiling panel (AID 651601)
Settings: antagonist mode, CCR6, run 4
pIC50: −log10 of the molar value.

# molecule, pIC50
measured = [
    ("O=C(CN1C2CCCC1CC(NC(=O)c1ccccc1)C2)Nc1ccccc1 (stereo unspecified)", "< 4.10"),
    ("COc1cccc(C(=O)NC2CC3CCCC(C2)N3CC(=O)Nc2ccccc2C(F)(F)F)c1 (stereo unspecified)", "< 4.10"),
    ("CN(C)c1ccc(NC(=O)CN2C3CCCC2CC(NC(=O)c2ccccc2)C3)cc1 (stereo unspecified)", "< 4.10"),
    ("COc1cc(C(=O)NC2CC3CCCC(C2)N3CC(=O)Nc2ccccc2)cc(OC)c1OC (stereo unspecified)", "< 4.10"),
    ("O=C(CN1C2CCCC1CC(NC(=O)c1ccccc1)C2)Nc1ccccc1C(F)(F)F (stereo unspecified)", "< 4.10"),
    ("COc1cccc(C(=O)NC2CC3CCCC(C2)N3CC(=O)Nc2ccc(N(C)C)cc2)c1 (stereo unspecified)", "< 4.10"),
]
